# run description: Binding affinity to synthetic ceramic hydroxyapatite type 1 assessed as reduction in bound compound level at 50 uM after 1 hr by NMR spectroscopic analysis relative to alendronate
# Design: scale not given: the % may be the effect or the level left
readout label: Activity (%)

Known results for compounds:
structure smiles string | Activity (%)
O=C(c1ccc(OCCN2CCCCC2)cc1)c1c(-c2ccc(O)cc2)sc2cc(O)ccc12 | -232
Oc1ccc(-c2cc3ccc(O)cc3s2)cc1 | 22.3
COc1ccc2c(C(=O)c3ccc(OCCN4CCCCC4)cc3)c(-c3ccc(O)cc3)sc2c1 | -57.9
COc1ccc(Nc2nc(NCc3ccco3)nc(N/N=C(\C)c3ccc(NC(C)=O)cc3)n2)cc1 | 3.9

a = C[C@]12CC[C@@H]3c4ccc(O)cc4CC[C@H]3[C@@H]1CC[C@@H]2O
b = O=C(c1ccc(OCCN2CCCCC2)cc1)c1c(-c2ccccc2)sc2ccccc12
c = O=C(c1ccc(O)cc1)c1c(-c2ccc(O)cc2)sc2cc(O)ccc12
Your job: order these 3 records by Activity, ascending. Present the labels in the sequence the task asks for.
b, c, a

Where do the numbers come from? From ChEMBL document CHEMBL3751680.
